- method description: Stability in C57BL/6J mouse serum assessed as residual parent compound remaining at 1 mM after 2 hrs at 37 degC by HPLC method
- Assay type: ADME, cell-free
- run conditions: read-out: Stability
Listed below: remaining at 2 h, 1000 µM values for each entry.
The reply should contain only the number, in %.

Some solved cases for reference:
substance smiles: CC[C@H](C)[C@H](NC(=O)[C@H](CCCNC(=N)NC)NC(=O)[C@H](CC(=O)O)NC(=O)[C@@H](NC(=O)[C@@H]1C[C@@H](O)CN1C(=O)CNC(=O)[C@@H](C)NC(=O)[C@H](CC1CCCCC1)NC(=O)[C@H]1C[C@H](O)CN1C(=O)[C@H](CO)NC(=O)[C@@H](Cc1ccccc1)NC(C)=O)[C@@H](C)CC)C(=O)NC
quantity unit: %
remaining at 2 h, 1000 µM: 100
//
substance smiles: CC[C@H](C)[C@H](NC(=O)[C@H](CCCNC(=N)NC)NC(=O)[C@H](CC(=O)O)NC(=O)[C@@H](NC(=O)[C@@H]1C[C@@H](O)CN1C(=O)CNC(=O)[C@@H](CO)NC(=O)[C@H](CC1CCCCC1)NC(=O)[C@H]1C[C@H](O)CN1C(=O)[C@H](CO)NC(=O)[C@@H](Cc1ccccc1)NC(=O)CO)[C@@H](C)CC)C(=O)NC
quantity unit: %
remaining at 2 h, 1000 µM: 107

input: May I ask what remaining at 2 h, 1000 µM has been recorded for CC[C@H](C)[C@H](NC(=O)[C@H](CCCNC(=N)NC)NC(=O)[C@H](CC(=O)O)NC(=O)[C@@H](NC(=O)[C@@H]1CCCN1C(=O)CNC(=O)[C@@H](C)NC(=O)[C@H](CC1CCCCC1)NC(=O)[C@H]1CCCN1C(=O)[C@H](CO)NC(=O)[C@@H](Cc1ccccc1)NC(C)=O)[C@@H](C)CC)C(=O)NC ?
output: 77
